Attribution: PubChem BioAssay (NCATS)

Test: qHTS for Inhibitors of Plasmodium falciparum (GB4) proliferation (AID 504315); also: nearly all actives have a fitted effect of over 50% in size
Details: P. falciparum GB4 in erythrocytes, SYBR Green DNA, 72 h; series mostly up to 6.7 µM
Records with an inconclusive call do not appear. The source made the active and inactive calls. Calls follow the shape of the dose curve; as a rule, active = well fitted inhibition curve with a large enough effect; inconclusive = small, poorly fitted or top-dose-only effect, or effect the other way; inactive = flat fitted curve, though single readings scatter.
Classes used: active, inactive

                                   compound  assigned_label
0  CCN1C(=O)N[C@@H](c2ccccc2)[C@H](C(C)=O)[C@H]1C        inactive
1  CCO[C@H](c1cc(OC)cc([N+](=O)[O-])c1OC)[C@H](C)C=CCC(=O)OC        inactive
2  CCC(=O)OC1(C)C(=O)C=C2C=C(CCCCNC(=O)OC(C)(C)C)OC=C2C1=O (stereo not drawn)        inactive
3  COC(=O)C1=C(C)N(Cc2ccccc2)C(=O)N[C@H]1c1cccc(F)c1        inactive
4  CC1(C)O[C@@H](C(O)(c2cc(F)c(F)c(F)c2)c2cc(F)c(F)c(F)c2)[C@H](C(O)(c2cc(F)c(F)c(F)c2)c2cc(F)c(F)c(F)c2)O1          active
5  COC(=O)C1=C(C(=O)OC)[C@@H]2N(C)c3ccc(OC)cc3[C@@]23C[C@@H](C(=O)OC)N(C(=O)COCc2ccccc2)C3=N1        inactive
6  CCCC[C@]12Cc3c(ccc4ccccc34)[C@H](O1)C1=C(O2)C(=O)c2ccccc2C1=O          active
7  COC(=O)C1=C(C(=O)OC)[C@@H]2N(C)c3ccccc3[C@@]23C[C@@H](C(=O)OC)N(C(=O)COCc2ccccc2)C3=N1        inactive
